Test system: HOP-62 NSCLC
Assay: NCI tumour cell line growth inhibition, 48 h
Reported metric: TGI

- Compound: "COC(=O)C(=O)c1cc2ccccc2n1S(=O)(=O)c1ccccc1"
  TGI: "> 100 µM"

Continue with the compound presented below.
The compound O=C(OCC(Cl)(Cl)Cl)N1CC[C@@H](C2CCCCC2)C1 , tested on HOP-62 NSCLC, showed TGI of 38 µM

---

Tested on: SF-268 CNS
Experiment: NCI tumour cell line growth inhibition, 48 h
Readings of TGI for the listed compounds

Field TGI (entry Oc1[nH]c2ccc(Cl)cc2c1/C=c1/ccc2c(c1)N=C(c1ccc(C(F)(F)F)cc1)N=2 ) reads 7.64 µM

Field TGI (entry C=CC(=O)N1CC2(CC(n3nc(-c4ccc(Oc5ccccc5)cc4)c4c(N)ncnc43)C2)C1 ) reads > 100 µM

Field TGI (entry Nc1nc2c(c(=O)[nH]1)N=C(COP(=O)(O)OP(=O)(O)O)CN2 ) reads > 100 µM

Field TGI (entry O=C1CC(NC2CC(=O)c3c(Br)sc(Br)c32)c2c(Br)sc(Br)c21 (configuration not stated) ) reads 26.2 µM

Field TGI (entry Cc1ccc(N(C)S(=O)(=O)c2ccccc2)cc1 ) reads > 100 µM

Field TGI (entry Cc1ccc(SC2C(C)(C)N(C(C)C)P2(=O)N(C(C)C)C(C)C)cc1 (configuration not stated) ) reads > 100 µM

Field TGI (entry Cc1ccc(S(=O)(=O)C(C#N)c2nc3ccccc3nc2N2CCOCC2)cc1 (configuration not stated) ) reads 71.1 µM

---

Tested on: SK-MEL-28 melanoma
Test: NCI tumour cell line growth inhibition, 48 h
*1 amine or outer side, *2 acyl side, *3 side chain or, on linkers, in order; H or OH if unused. Where a SMILES comes first, the peptide text is derived from it. Bridges are numbered along the chain shown (N, C = ends). Roman numbers before positions name the chains, in order. X23 = CCCCCCCCCCCCCCC(=O)NC(CCCCN[*:2])C(=O)CN1CCCC1C(=O)[*:1]
Readings of TGI for the listed compounds
Kindly answer with a numeric value in µM, unit omitted.

- Compound: "CCCCCCCCCCCCCCC(=O)NC(CCCCNC(=O)C1CCCN1C(=O)C(CCCCN)NC(=O)C(CCCCN)NC(=O)C(CCCCN)NC(=O)C(CCCNC(=N)N)NC(=O)C(CCCCN)NC(=O)C(N)C(C)C)C(=O)CN1CCCC1C(=O)NCC(=O)NC(Cc1ccccc1)C(=O)N1CCCC1C(=O)NC(CO)C(=O)NC(Cc1ccc(O)cc1)C(=O)NC(CCCCN)C(=O)NC(CC(C)C)C(=O)NC(CCCNC(=N)N)C(=O)N1CCCC1C(=O)NCC(N)=O (configuration not stated) (I: GFPSYKLRPG-NH2 / II: H-VKRKKKP; linker I:N-II:C via X23; configuration not given here)"
  Reported metric: "TGI"
  Unit of measure: "µM"
  Experimental value: 98.6
- Compound: "COc1ccc(C2=NNC(c3cc(Cc4ccc(O)c(C5CC(c6ccc(OC)cc6)=NN5)c4)ccc3O)C2)cc1 (configuration not stated)"
  Reported metric: "TGI"
  Unit of measure: "µM"
  Experimental value: 34.1
- Compound: "COc1ccc2[nH]c3c(C)c4ccnc(NCCCN(C)CCCN)c4c(C)c3c2c1"
  Reported metric: "TGI"
  Unit of measure: "µM"
  Experimental value: 1.61
- Compound: "O=[N+]([O-])c1ccc(Oc2cccc(C(F)(F)F)c2)c([N+](=O)[O-])c1"
  Reported metric: "TGI"
  Unit of measure: "µM"
  Experimental value: 19.9
- Compound: "O=C1C=CC(=O)c2c1cc1ccccc1c2O"
  Reported metric: "TGI"
  Unit of measure: "µM"
  Experimental value: 20
- Compound: "Cc1ccn2c(-c3csc(Nc4cccc(O)c4)n3)c(C)nc2c1"
  Reported metric: "TGI"
  Unit of measure: "µM"
  Experimental value: 36.3

The compound O=C(Nc1ccc2cc3ccc(NC(=O)N4CCCCCC4)cc3nc2c1)N1CCCCCC1 , tested on SK-MEL-28 melanoma, showed TGI of 2.67
